The reported measurements were obtained from patent US8507464B2.

Tested on: HT29
EXPERIMENT DESCRIPTION: Anti-proliferation assay, hypoxia vs normoxia (Table 1B)
MEASURED ATTRIBUTE: HT29 HCR P

- COMPOUND: "CN(CCCl)P(=O)(OCc1cnc([N+](=O)[O-])n1C)N(C)CCCl [Compound 5]"
  HT29 HCR P: ">10"
- COMPOUND: "Cn1c(COP(=O)(NCCBr)NCCBr)cnc1[N+](=O)[O-] [Compound 25]"
  HT29 HCR P: ">6"
- COMPOUND: "Cn1c(COP(=O)(N(CCCl)CCCl)N(CCCl)CCCl)cnc1[N+](=O)[O-] [Compound 6]"
  HT29 HCR P: ">2"
- COMPOUND: "Cn1c(COP(=O)(N(CCCl)C2CC2)N(CCCl)C2CC2)cnc1[N+](=O)[O-] [Compound 7]"
  HT29 HCR P: ">5"
- COMPOUND: "O=[N+]([O-])c1ccc(COP(=O)(NCCBr)NCCBr)s1 [Compound 34]"
  HT29 HCR P: 70

Problem: Return HT29 HCR P measured with HT29 given this compound: Cn1c(COP(=O)(NCCCl)NCCCl)cnc1[N+](=O)[O-] [Compound 36]
Result: >2

Problem: And what about the compound Cn1c(COP(N)(=O)N(CCCl)CCCl)cnc1[N+](=O)[O-] (stereo not shown) [Compound 1] ?
Result: >2

----------
EXPERIMENT DESCRIPTION: In vivo plasma or tumor pharmacokinetics of Compound 25 (Table 4)
Design: species or system CD-1 mice (nude mice where noted)
EXPERIMENTAL CONTEXT: nude, mouse, plasma, ip, 150 mg/kg, 150 mg/kg i.p., Saline, nude mice with H460 tumor, plasma; read-out: Half-life
MEASURED ATTRIBUTE: half-life (min)
// return numeric value only (unit: min, not printed)

Problem: Suppose we examine the compound Cn1c(COP(=O)(NCCBr)NCCBr)cnc1[N+](=O)[O-] [Compound 25] ; what half-life value has been reported?
Result: 58.7

----------
EXPERIMENT DESCRIPTION: Solubility in saline at room temperature
Assay type: physicochemical
EXPERIMENTAL CONTEXT: saline or isotonic
MEASURED ATTRIBUTE: solubility

- MOLECULE: "Cn1c([N+](=O)[O-])cnc1COP(=O)(N(CCCl)CCCl)N(CCCl)CCCl [Compound 155]"
  solubility: "< 1000 µg/mL"
- MOLECULE: "Cn1c([N+](=O)[O-])cnc1COP(=O)(NCCCl)NCCCl [Compound 10]"
  solubility: "10000 µg/mL"
- MOLECULE: "Cn1c(COP(=O)(NCCBr)NCCBr)cnc1[N+](=O)[O-] [Compound 25]"
  solubility: "15000 µg/mL"

Read the next record carefully.
Problem: Suppose we examine the molecule Cn1c([N+](=O)[O-])cnc1COP(=O)(NCCBr)NCCBr [Compound 73] ; what solubility value has been reported?
Result: 10000 µg/mL

----------
Tested on: NCI-H460 cells
EXPERIMENT DESCRIPTION: Antiproliferation assay - oxygen dependence
Format: cell-based, human
EXPERIMENTAL CONTEXT: Air; read-out: IC50 in H460 cells, Air
We begin with a simple list: items and their reported pIC50.
Expect pIC50 as a plain number equal to -log10 of the molar concentration.

Below, each entry is followed by its recorded pIC50 result.
- MOLECULE: "N#Cc1cc(C#CCOP(=O)(NCCBr)NCCBr)sc1[N+](=O)[O-]"
  MEASURED ATTRIBUTE: "pIC50"
  OBSERVED VALUE: 5.70
- MOLECULE: "CC(OP(=O)(NCCBr)NCCBr)c1ccc(OCc2cnc([N+](=O)[O-])n2C)c([N+](=O)[O-])c1 (centres unmarked)"
  MEASURED ATTRIBUTE: "pIC50"
  OBSERVED VALUE: 5.40
- MOLECULE: "Cc1csc(C(C)OP(=O)(NCCCl)NCCCl)c1[N+](=O)[O-] (centres unmarked)"
  MEASURED ATTRIBUTE: "pIC50"
  OBSERVED VALUE: 4.46
- MOLECULE: "CC#Cc1cc(COP(=O)(NCCBr)NCCBr)sc1[N+](=O)[O-]"
  MEASURED ATTRIBUTE: "pIC50"
  OBSERVED VALUE: 6.00

Read the next record carefully.
Problem: Suppose we examine the molecule N#Cc1cc(COP(=O)(NCCBr)NCCBr)sc1[N+](=O)[O-] ; what pIC50 value has been reported?
Result: 7.70
